# Tgt: Human PD-L1 expressed on cells (human, UniProt Q9NZQ7 19-290)
# Sequence (Q9NZQ7 19-290 limits assumed): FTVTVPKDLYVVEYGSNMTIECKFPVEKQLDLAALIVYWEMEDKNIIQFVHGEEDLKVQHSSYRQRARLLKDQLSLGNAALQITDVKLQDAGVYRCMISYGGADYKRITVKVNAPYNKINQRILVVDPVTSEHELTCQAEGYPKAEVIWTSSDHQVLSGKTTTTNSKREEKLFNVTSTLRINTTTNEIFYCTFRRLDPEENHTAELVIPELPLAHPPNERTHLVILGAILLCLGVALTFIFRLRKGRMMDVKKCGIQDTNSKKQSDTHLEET
# Experiment summary: cell-based or functional assay
Attribute measured: EC50, ADCC reporter assay, n = 2
State the value, then name its unit.

Quick one: give me EC50, ADCC reporter assay, n = 2 for each item below, same order please.
1. 84G09 (human IgG1) (antibody, V domains shown, also called clone 84609; lead antibody) VH: EVQLVESGGGLVQPGRSLRLSCAASGFTFDDYAMHWVRQTPGKGLEWVSGISWKSNIIGYADSVKGRFTISRDNAKNSLYLQMNSLRAEDTALYYCARDITGSGSYGWFDPWGQGTLVTVSS VL: DIQMTQSPSSLSASVGDRVTITCRASQSISSYLNWYQQKPGKAPKPLIYVASSLQSGVPSSFSGSGSGTDFTLTISSLQPEDFATYYCQQSYSNPITFGQGTRLEIKR
2. 413G05 (antibody, human IgG1, kappa, V domains shown) VH: QVQLVESGGGLVKPGGSLRLSCAASGFTFSDYYMSWIRQVPGKGLEWVSYISTSGSTIYYADSVKGRFTISRDNAKNSLYLQMNSLRAEDAAVYHCARGITGTNFYHYGLGVWGQGTTVTVSS VL: DIQMTQSPSSVSASVGDRVTITCRASQGINSWLAWYQQKPGKAPKLLIYAASTLQSGVPSRFSGSGSGADFTLTISSLQPEDFATYYCQQVNSFPLTFGGGTKVEIKR
3. 416E01 (human IgG1) (antibody, V domains shown) VH: EVQLAESGGGLVQPGGSLRLSCAASGFTFSNYAMSWVRQTPGKGLEWVSAISFSGGTTYYADSVKGRFTISRDNSKNTLYLHMNSLRADDTAVYYCAKDEAPAGATFFDSWGQGTLVTVSS VL: DIQMTQSPSSVSASVGDRVTITCRASQGIRRWLAWYQQKPGKAPKLLISGASSLQSGVPSRFSGSGSGTDFTLIITSLQPEDFATYYCQQANSFPITFGQGTRLEIKR
4. 414B06 (antibody, V domains shown, also called 414606) VH: EVHLVESGGGLVQPGGSLRLSCAASGFTFSSYWMNWVRQAPGKGLEWVANIKQDGSEKYYVDSVKGRFTVSRDNAKNSLYLQMNSLRAEDTAVYYCARVRQWSDYSDYWGQGTPVTVSS VL: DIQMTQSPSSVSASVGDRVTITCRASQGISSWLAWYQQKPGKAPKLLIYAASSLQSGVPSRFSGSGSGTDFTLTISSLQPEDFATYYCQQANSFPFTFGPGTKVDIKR

Result block:
1: 0.0153 nM; 2: 0.0209 nM; 3: 0.0106 nM; 4: 0.015 nM
